# key: entry, value: Percent Effect
organism: Homo sapiens; assay: To identify inhibition of the IFN signalling (Jak-Stat) pathway via expression of an eGFP reporter gene under the control of an IFN-stimulated response element (ISRE) containing MxA promoter.; type: functional; set-up: scale not given: direction of the effect not stated beside the values; details: 30 µM
MEASURED_PROPERTY: Percent Effect (%)

> print(dat)
                                    molecule  recorded.number
 1  c1ccc2sc(CN3CCOC(Cn4cccn4)C3)nc2c1 (stereo not given)             24.4
 2               CCCNC(=O)CNc1cc(C#N)ccc1OCC             11.7
 3  O=C1[C@@H]2CCN(Cc3ccncc3)C[C@@H]2OCCN1c1ccccc1            -13.1
 4  CCN(Cc1cccc(Cl)c1)Cn1nc(C)c2c(C)onc2c1=O             14.3
 5  CC(=O)N(C)c1nc(CN2CCOC(Cn3cc(C)cn3)C2)cs1 (stereo not given)             16.8
 6  CCc1cnc(CNc2ccc(C(=O)N3CCCC(C)C3)cc2C)o1 (stereo not given)             25.1
 7  CS(=O)(=O)N1CCCC12CCCN(S(=O)(=O)c1ccc(F)cc1)C2 (stereo not given)            -4.37
 8    Cc1ccc(C(=O)NCCCNS(C)(=O)=O)c(=O)[nH]1            -1.74
 9  CS(=O)(=O)NCCC(=O)NC1CCc2nccn2C1 (stereo not given)             11.5
10    O=S(=O)(Cc1ccccc1)NCC1CCN(c2cnccn2)CC1             9.96
